- procedure-details: in vitro
- Assay type: cell-based
- conditions: human, HepG2 CC50, 96 hours
test-readout: CC50 (µM)
All answers are understood in µM, so give the number only.

INSERT INTO measurements (compound, test_readout, value_observed) VALUES
  ('CS(=O)(=O)c1ccc(-c2cnc(N)c(-c3ccc(C(F)(F)F)nc3)c2)cc1', 'CC50', 26.2);

Quick one: CC50 of CC(=O)Oc1ccccc1C(=O)Nc1ncc([N+](=O)[O-])s1 [Nitazoxanide] ?
12.7

----------
- System: Pf 3D7
- procedure-details: P. falciparum 3D7 growth inhibition
- Type: cell-based
- conditions: Plasmodium falciparum, 3D7, read-out: Pf 3D7 IC50
test-readout: IC50 (nM)
All answers are understood in nM, so give the number only.

Quick one: IC50 of CS(=O)(=O)c1ccc(-c2cnc(N)c(-c3ccc(C(F)(F)F)nc3)c2)cc1 ?
42
